System: SC27B
Assay: qHTS profiling for inhibitors of Plasmodium falciparum proliferation (AID 504749); further: nearly all actives have a fitted effect of over 60% in size
Conditions: P. falciparum in erythrocytes, SYBR Green DNA, 72 h; series mostly up to 28.7 µM
Records with an inconclusive call do not appear. The source made the active and inactive calls. The call rests on the fitted dose curve; in most records, active means well fitted inhibition curve with a large enough effect; inconclusive means small, poorly fitted or top-dose-only effect; inactive means flat fitted curve, though single readings scatter.
Use one of these outcomes when replying: active, inactive

Lab log entry: O=C(c1ccc(F)cc1)C1CCN(CCn2c(=S)[nH]c3ccccc3c2=O)CC1 — outcome as called in the assay?
active

Would you kindly look at the next entry?
Lab log entry: COc1cc(C(=O)NCc2ccc(OCCN(C)C)cc2)cc(OC)c1OC — outcome as called in the assay?
inactive

====

Tested on: MCC-26
Test: qHTS assay to identify novel small-molecules to repurpose for Merkel cell carcinoma treatment (AID 1296009); further: nearly all actives have a fitted effect of over 60% in size
Conditions: MCC and control cell lines, CellTiter-Glo viability, 72 h; series mostly up to 46 µM
Text: MCC is a rare and aggressive neuroendocrine skin cancer with limited treatment options. Approximately 80% of MCCs have the Merkel cell polyomavirus (MCPyV) DNA integrated into the host genome (virus-positive: VP-MCC) and viral oncogenes drive oncogenesis. The remaining MCCs are virus-negative (VN-MCC) and are caused by UV mutagenesis. […] Using cell viability as a readout (CellTiter-Glo assay) we found both overlapping and distinct drugs that can be repurposed for the treatment of VP-MCC and VN-MCC. […]
Results filed as inconclusive are left out. The source made the active and inactive calls. Calls come from the whole dose curve; as a rule, active = well fitted inhibition curve with a large enough effect; inconclusive = small, poorly fitted or top-dose-only effect; inactive = flat fitted curve, though single readings scatter.
Use one of these outcomes when replying: active, inactive

// below: answered compounds
Lab log entry: CCOc1cc(OCC)c(C(=O)CCC(=O)O)cc1OCC — outcome as called in the assay?
inactive

Lab log entry: CCCCCCCCCCCCCCC[C@H](O)[C@@H](N)CO — outcome as called in the assay?
inactive

Lab log entry: CC(C)n1c(/C=C/[C@@H](O)C[C@@H](O)CC(=O)O)c(-c2ccc(F)cc2)c2ccccc21 — outcome as called in the assay?
active

***
Lab log entry: COc1ccc(S(=O)(=O)N2c3ccc(Cl)cc3[C@@](O)(c3ccccc3Cl)[C@H]2C(=O)N2CCC[C@@H]2C(N)=O)cc1OC — outcome as called in the assay?
inactive

Lab log entry: N#C/C(=C1\SCC(c2ccccc2Cl)S1)n1ccnc1 (stereo not given) — outcome as called in the assay?
inactive

Lab log entry: Cc1ccc(-c2ncc(Cl)cc2-c2ccc(S(C)(=O)=O)cc2)cn1 — outcome as called in the assay?
inactive

Lab log entry: CN(CCCN1c2ccccc2CCc2ccccc21)CC(=O)c1ccc(Cl)cc1 — outcome as called in the assay?
inactive

Lab log entry: CCCc1ncc(C[n+]2ccccc2C)c(N)n1 — outcome as called in the assay?
inactive

Lab log entry: NCCNc1cccc2ccccc12 — outcome as called in the assay?
inactive

Lab log entry: N[C@H](C(=O)O)[C@@H](O)c1ccc(O)c(O)c1 — outcome as called in the assay?
inactive

Lab log entry: C=C[C@H]1CN2CC[C@H]1C[C@@H]2[C@@H](O)c1ccnc2ccc(OC)cc12 — outcome as called in the assay?
inactive

Lab log entry: COc1cc(O)c(C(=O)c2ccccc2)cc1S(=O)(=O)O — outcome as called in the assay?
inactive

Lab log entry: C[C@@]12C(=O)OC(=O)[C@]1(C)C1CCC2O1 — outcome as called in the assay?
active

Lab log entry: COc1ccc(C(=O)c2ccccc2)c(O)c1 — outcome as called in the assay?
inactive

Lab log entry: CCCCCCCCCCCCCCCCO — outcome as called in the assay?
inactive

Reference source: PubChem BioAssay (NCATS)
